Hi there, I'd appreciate the recorded Kd for every entry that follows.
target: UniProt Q09013; test: Binding affinity to recombinant full-length N-terminal His-FLAG-GST-tagged DMPK (unknown origin) expressed in baculovirus infected Sf9 insect cells incubated for 1 hr by TR-FRET assay
Sequence (Q09013 whole entry): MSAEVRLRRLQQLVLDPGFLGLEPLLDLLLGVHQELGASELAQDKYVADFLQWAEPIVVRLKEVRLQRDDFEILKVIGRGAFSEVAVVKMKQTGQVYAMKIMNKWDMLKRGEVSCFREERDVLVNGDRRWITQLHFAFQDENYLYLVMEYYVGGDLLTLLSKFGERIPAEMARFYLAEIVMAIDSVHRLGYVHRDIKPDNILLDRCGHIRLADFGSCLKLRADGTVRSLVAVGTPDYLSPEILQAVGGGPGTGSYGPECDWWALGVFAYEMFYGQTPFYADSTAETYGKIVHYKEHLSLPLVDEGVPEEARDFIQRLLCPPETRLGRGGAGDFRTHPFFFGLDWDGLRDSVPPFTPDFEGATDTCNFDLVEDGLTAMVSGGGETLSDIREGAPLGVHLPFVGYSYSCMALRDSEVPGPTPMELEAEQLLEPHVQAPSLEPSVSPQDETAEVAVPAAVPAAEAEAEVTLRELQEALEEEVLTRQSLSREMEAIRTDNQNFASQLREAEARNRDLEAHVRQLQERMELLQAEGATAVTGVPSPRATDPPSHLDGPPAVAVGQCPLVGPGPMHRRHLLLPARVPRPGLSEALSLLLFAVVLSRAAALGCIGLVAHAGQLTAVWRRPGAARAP

CO[C@@H]1[C@H](N(C)CCOCCOCCOCCNC(=O)CCC2=[N+]3C(=Cc4c(C)cc(C)n4[B-]3(F)F)C=C2)C[C@H]2O[C@]1(C)n1c3ccccc3c3c4c(c5c6ccccc6n2c5c31)C(=O)NC4; 94 nM

Here's the next entry for you.
input: Supply reported Kd belonging to this compound: `CO[C@@H]1[C@H](NCCOCCOCCOCCNC(=O)CCC2=[N+]3C(=Cc4c(C)cc(C)n4[B-]3(F)F)C=C2)C[C@H]2O[C@]1(C)n1c3ccccc3c3c4c(c5c6ccccc6n2c5c31)C(=O)NC4`
output: 90 nM

###

Hi there, I'd appreciate the recorded Kd for every entry that follows.
target: Tyrosine-protein kinase HCK (Homo sapiens, UniProt P08631); test: Binding affinity to recombinant full-length N-terminal His-FLAG-GST-tagged HCK (unknown origin) (25 to 526 residues) expressed in baculovirus infected Sf9 insect cells incubated for 1 hr by TR-FRET assay
Sequence (P08631 whole entry, the tested form may be a part): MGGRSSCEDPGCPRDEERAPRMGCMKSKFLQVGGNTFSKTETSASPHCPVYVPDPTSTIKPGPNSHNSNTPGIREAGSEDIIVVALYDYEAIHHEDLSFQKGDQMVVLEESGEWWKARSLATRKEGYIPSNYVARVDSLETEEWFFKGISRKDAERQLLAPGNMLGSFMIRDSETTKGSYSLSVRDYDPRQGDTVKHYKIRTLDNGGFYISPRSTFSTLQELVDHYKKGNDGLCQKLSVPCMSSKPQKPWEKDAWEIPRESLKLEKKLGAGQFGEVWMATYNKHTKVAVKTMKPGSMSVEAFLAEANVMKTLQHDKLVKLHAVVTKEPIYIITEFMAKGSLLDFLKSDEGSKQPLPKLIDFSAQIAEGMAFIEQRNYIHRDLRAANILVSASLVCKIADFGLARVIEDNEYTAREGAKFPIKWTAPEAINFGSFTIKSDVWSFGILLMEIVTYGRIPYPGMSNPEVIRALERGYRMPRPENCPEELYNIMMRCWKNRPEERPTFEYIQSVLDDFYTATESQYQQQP
Numbers only, in nM.

Batch lookup, Kd per entry.
1. CO[C@@H]1[C@H](NCCOCCOCCOCCNC(=O)CCC2=[N+]3C(=Cc4c(C)cc(C)n4[B-]3(F)F)C=C2)C[C@H]2O[C@]1(C)n1c3ccccc3c3c4c(c5c6ccccc6n2c5c31)C(=O)NC4
2. CO[C@@H]1[C@H](N(C)CCOCCOCCOCCNC(=O)CCC2=[N+]3C(=Cc4c(C)cc(C)n4[B-]3(F)F)C=C2)C[C@H]2O[C@]1(C)n1c3ccccc3c3c4c(c5c6ccccc6n2c5c31)C(=O)NC4

output:
263
280

###

biological target: UniProt Q8N4C8; experiment: Binding affinity to recombinant full-length N-terminal His-FLAG-GST-tagged MINK1 (unknown origin) (1 to 314 residues) expressed in baculovirus infected Sf9 insect cells incubated for 1 hr by TR-FRET assay
Sequence (Q8N4C8 whole entry, the tested form may be a part): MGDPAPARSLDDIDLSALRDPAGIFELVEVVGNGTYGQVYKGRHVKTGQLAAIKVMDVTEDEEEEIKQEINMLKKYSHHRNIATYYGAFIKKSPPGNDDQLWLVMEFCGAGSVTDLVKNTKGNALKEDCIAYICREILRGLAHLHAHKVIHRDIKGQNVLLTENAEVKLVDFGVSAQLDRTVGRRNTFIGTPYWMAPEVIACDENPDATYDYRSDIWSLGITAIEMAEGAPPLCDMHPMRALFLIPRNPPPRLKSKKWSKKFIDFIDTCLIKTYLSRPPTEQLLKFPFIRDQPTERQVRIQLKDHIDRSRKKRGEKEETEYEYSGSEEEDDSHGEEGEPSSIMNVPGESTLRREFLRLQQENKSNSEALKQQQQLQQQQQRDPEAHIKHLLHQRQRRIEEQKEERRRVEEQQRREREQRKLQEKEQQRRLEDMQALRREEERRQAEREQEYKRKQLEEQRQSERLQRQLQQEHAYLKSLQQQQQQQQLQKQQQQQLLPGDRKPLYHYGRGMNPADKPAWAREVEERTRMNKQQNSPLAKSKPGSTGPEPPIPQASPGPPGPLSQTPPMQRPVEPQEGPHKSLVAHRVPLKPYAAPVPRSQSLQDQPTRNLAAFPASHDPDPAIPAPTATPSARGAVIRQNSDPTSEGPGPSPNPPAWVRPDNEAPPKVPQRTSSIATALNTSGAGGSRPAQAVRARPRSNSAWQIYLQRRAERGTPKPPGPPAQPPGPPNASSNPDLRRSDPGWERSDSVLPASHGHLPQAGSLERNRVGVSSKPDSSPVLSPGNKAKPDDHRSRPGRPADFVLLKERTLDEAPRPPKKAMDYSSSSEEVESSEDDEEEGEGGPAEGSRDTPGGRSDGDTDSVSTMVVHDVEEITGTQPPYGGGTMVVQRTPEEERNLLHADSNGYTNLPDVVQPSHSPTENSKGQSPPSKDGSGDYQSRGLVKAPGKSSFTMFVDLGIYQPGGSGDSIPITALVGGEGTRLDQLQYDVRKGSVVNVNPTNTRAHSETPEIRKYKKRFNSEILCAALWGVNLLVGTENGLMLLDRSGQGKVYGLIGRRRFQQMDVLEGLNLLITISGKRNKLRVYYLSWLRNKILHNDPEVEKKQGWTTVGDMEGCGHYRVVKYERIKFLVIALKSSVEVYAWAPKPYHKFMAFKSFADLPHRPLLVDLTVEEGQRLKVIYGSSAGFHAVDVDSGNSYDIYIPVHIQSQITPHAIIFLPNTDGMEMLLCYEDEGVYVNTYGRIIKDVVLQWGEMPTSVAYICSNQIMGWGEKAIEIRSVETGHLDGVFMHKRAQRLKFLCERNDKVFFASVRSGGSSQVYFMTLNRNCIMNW
Hi there, I'd appreciate the recorded pKd for every entry that follows.
Answers are plain numbers, as −log10 of the molar value.

CO[C@@H]1[C@H](NCCOCCOCCOCCNC(=O)CCC2=[N+]3C(=Cc4c(C)cc(C)n4[B-]3(F)F)C=C2)C[C@H]2O[C@]1(C)n1c3ccccc3c3c4c(c5c6ccccc6n2c5c31)C(=O)NC4; 6.64

input: Supply reported pKd belonging to this molecule: `CO[C@@H]1[C@H](N(C)CCOCCOCCOCCNC(=O)CCC2=[N+]3C(=Cc4c(C)cc(C)n4[B-]3(F)F)C=C2)C[C@H]2O[C@]1(C)n1c3ccccc3c3c4c(c5c6ccccc6n2c5c31)C(=O)NC4`
output: 6.80

###

biological target: Receptor tyrosine-protein kinase erbB-4 (Homo sapiens, UniProt Q15303); assay: Binding affinity to recombinant human full-length N-terminal GST-tagged ERBB4 expressed in baculovirus expression system using srctide as substrate incubated for 1 hr by TR-FRET assay
Sequence (Q15303 whole entry): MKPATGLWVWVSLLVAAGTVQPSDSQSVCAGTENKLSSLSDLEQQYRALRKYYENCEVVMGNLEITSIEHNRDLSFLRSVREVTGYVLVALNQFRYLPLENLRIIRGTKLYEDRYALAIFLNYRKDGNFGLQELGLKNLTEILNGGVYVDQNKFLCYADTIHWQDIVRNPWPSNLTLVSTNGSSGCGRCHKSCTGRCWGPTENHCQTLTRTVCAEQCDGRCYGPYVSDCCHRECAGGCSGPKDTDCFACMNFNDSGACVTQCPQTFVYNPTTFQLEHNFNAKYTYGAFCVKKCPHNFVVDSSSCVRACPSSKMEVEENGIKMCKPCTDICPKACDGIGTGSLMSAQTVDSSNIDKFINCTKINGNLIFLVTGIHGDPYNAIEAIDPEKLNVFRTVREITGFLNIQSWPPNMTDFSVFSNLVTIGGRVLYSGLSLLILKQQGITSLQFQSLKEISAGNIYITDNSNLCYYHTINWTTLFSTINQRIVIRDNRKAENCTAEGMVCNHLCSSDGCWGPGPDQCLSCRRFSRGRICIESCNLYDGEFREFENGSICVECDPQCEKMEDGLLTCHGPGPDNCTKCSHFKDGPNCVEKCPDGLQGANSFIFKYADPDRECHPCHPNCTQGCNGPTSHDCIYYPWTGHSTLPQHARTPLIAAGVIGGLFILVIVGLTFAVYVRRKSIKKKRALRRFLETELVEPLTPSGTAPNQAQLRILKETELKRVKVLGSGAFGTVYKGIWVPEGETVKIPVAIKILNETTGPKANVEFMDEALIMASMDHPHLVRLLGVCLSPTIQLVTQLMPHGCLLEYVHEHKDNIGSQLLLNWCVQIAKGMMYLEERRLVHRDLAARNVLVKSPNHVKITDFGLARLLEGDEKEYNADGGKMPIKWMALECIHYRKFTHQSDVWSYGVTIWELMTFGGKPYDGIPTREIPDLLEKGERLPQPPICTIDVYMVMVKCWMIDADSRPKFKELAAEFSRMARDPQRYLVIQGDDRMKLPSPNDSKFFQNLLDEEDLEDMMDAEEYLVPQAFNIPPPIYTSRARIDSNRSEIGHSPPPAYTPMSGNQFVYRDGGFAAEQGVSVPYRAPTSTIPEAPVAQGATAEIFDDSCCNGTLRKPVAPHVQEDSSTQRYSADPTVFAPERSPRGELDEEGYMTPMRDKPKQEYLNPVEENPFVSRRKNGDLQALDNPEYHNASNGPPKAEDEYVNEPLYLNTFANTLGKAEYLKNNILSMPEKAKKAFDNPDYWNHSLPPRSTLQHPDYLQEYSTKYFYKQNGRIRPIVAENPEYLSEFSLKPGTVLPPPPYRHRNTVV
Hi there, I'd appreciate the recorded pKd for every entry that follows.
One number for each entry, as −log10 of the molar value.

CO[C@@H]1[C@H](N(C)CCOCCOCCOCCNC(=O)CCC2=[N+]3C(=Cc4c(C)cc(C)n4[B-]3(F)F)C=C2)C[C@H]2O[C@]1(C)n1c3ccccc3c3c4c(c5c6ccccc6n2c5c31)C(=O)NC4; 6.10

Here's the next entry for you.
input: Supply reported pKd belonging to this compound: `CO[C@@H]1[C@H](NCCOCCOCCOCCNC(=O)CCC2=[N+]3C(=Cc4c(C)cc(C)n4[B-]3(F)F)C=C2)C[C@H]2O[C@]1(C)n1c3ccccc3c3c4c(c5c6ccccc6n2c5c31)C(=O)NC4`
output: 6.30
